Provenance of the data: patent US20070207507A1

system: myeloperoxidase
Sequence (P05164 165-745): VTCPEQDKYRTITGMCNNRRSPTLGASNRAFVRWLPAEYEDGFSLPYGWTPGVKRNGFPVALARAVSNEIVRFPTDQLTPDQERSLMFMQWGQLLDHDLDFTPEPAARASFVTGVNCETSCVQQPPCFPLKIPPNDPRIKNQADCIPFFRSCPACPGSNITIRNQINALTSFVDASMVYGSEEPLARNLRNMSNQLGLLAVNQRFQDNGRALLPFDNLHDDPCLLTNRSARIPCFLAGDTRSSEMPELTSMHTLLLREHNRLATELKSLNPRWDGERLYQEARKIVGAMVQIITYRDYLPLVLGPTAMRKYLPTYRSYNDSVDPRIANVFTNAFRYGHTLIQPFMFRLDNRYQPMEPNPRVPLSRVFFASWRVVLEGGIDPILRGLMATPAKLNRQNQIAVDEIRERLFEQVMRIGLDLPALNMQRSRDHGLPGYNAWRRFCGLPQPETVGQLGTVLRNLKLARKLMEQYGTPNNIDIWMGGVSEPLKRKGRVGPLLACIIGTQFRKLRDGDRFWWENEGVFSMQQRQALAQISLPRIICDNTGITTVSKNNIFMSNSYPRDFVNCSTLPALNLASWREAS
procedure.summary: 99mTc-phage incubated with 125I-myeloperoxidase, separated on a spin column / Sepharose 6B column
Bridges are numbered along the chain shown (N, C = ends). Where no end group is shown, it is not given here.
Measured Relative Binding (% bound after subtraction of control phage MPO-4) accompanies every entry in the list below.
Quick reminder: number only, in %, skip the unit.

| binder | test.result |
| --- | --- |
| TVMLCNPMEQGCRWMC (disulfide 5-12; also: phage labelled with 99mTc via MAG3) [phage clone MPO-15 (f88-4/Cys6 phage displaying a 16 mer cysteine-constrained peptide in pVIII)] | 4.5 |

q: Respond only with Relative Binding (% bound after subtraction of control phage MPO-4) recorded for RSGQCHDDTWNCLACV (disulfide 5-12; also: phage labelled with 99mTc via MAG3) [phage clone MPO-17 (f88-4/Cys6 phage displaying a 16 mer cysteine-constrained peptide in pVIII)]
a: 8

q: Respond only with Relative Binding (% bound after subtraction of control phage MPO-4) recorded for HVLGCSYATNSCAHNA (disulfide 5-12; also: phage labelled with 99mTc via MAG3) [phage clone MPO-6 (f88-4/Cys6 phage displaying a 16 mer cysteine-constrained peptide in pVIII)]
a: 5.8

q: Respond only with Relative Binding (% bound after subtraction of control phage MPO-4) recorded for AMPVCSLDRKACTAYQ (disulfide 5-12; also: phage labelled with 99mTc via MAG3) [phage clone MPO-1 (f88-4/Cys6 phage displaying a 16 mer cysteine-constrained peptide in pVIII)]
a: 3.9
